measured-on: T1, human CCR8 (human, UniProt P51685 1-355)
T1 construct: Native CCR8 on human PBMC (CCR8+ CD3+ or CCR8+ CD4+ lymphocytes); also called chemokine (C-C motif) receptor 8
protocol-details: flow blocking, PBMC CCR8+CD3+; competitor PE-AB15
Experimental: For blocking studies, 100 μL of the cell suspension were incubated with 10 μg purified isotype control, AB1, AB2, AB3, AB4, AB5, AB8, AB9, AB10, AB11, AB12, AB13, AB14, AB15, and Commercial ABI antibodies, or isotype control, as blocking agents. […]
Please respond with reported % Blocking for every item in the list.
Write the value in % as a bare number.

**Query** What does the data say about its % Blocking? Entry: AB10 (antibody, V domains shown, Hybridoma monoclonal; also called antibody 10; clone 10) VH: EVQLVETGGGLVQPKGSLKLSCAVSGFTFKTNAMNWVRQAPGKGLEWVARIRSKSNKYATYYADSVKDRFTISRDDSQSMLYLQMNNLKTEDTAMYYCVRGSEMGYYYAMDYWGQGTSVTVSS VL: DIVMTQAAPSVPVTPGESVSISCRSSKSLLHSNGNTYLYWFLQRPGQSPQLLIYRMSNLASGVPDRFSGSGSGTAFTLRISRVEAEDVGVYYCMQHLEYPFTFGGGTKLEIK
**Result** 43.3

**Query** What does the data say about its % Blocking? Entry: AB6 (antibody, V domains shown, Hybridoma monoclonal; Same VH/VL entries as AB5; also called antibody 6; clone 6) VH: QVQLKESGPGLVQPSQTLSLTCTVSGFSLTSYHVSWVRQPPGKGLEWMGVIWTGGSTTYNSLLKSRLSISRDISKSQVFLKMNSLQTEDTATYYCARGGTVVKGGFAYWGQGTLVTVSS VL: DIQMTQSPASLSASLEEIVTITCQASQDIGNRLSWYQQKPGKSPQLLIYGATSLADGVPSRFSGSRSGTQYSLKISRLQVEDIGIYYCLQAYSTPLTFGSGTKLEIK
**Result** 13.3

**Query** What does the data say about its % Blocking? Entry: AB13 (antibody, V domains shown, Hybridoma monoclonal; also called antibody 13; clone 13) VH: EVQLVETGGGLVQPKGSLKLSCAASGFTFNAYAMNWVRQAPGKGLEWVARIRTKSNNYATYYADSVKDRFTISRDDSQTMLYLQMNNLKTEDTAMYYCVRDRATVTTGRAMDYWGQGTSVTVSS VL: DIVMTQAAPSLPVTPGESVSISCRSSKSLLHSNGNTYLYWFLQRAGQSPQLLIYRMSNLASGVPDRFSGSGSGTAFTLRISRVEAEDVGVYYCMQHLEYPFTFGSGTKLEIK
**Result** 30
